TARGET ENTITY: SIRT1 (Homo sapiens)
Sequence (Q96EB6 1-747): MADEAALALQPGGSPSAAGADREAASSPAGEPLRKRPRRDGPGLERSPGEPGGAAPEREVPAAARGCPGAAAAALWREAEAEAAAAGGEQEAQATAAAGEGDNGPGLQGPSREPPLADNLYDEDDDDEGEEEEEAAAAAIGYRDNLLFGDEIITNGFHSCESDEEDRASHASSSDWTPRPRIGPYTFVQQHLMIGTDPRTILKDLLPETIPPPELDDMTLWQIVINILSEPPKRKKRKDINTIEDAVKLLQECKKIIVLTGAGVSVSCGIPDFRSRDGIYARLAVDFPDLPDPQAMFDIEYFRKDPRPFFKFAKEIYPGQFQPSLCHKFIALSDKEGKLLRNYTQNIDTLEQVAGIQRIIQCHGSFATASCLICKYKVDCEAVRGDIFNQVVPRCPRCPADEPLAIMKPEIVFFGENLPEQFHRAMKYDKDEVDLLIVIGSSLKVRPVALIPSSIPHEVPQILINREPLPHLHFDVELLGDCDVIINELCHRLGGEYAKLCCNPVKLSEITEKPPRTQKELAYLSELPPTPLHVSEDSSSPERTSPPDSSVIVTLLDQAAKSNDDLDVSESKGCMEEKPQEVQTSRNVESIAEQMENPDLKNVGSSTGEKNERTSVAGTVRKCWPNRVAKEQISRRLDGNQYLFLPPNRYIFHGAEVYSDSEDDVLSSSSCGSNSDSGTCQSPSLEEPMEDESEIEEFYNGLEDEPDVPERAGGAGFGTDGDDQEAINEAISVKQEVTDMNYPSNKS
PROCEDURE DETAILS: TAMRA based mass spectrometry assay of SIRT1 activity
Type: biochemical
CONDITION PARAMETERS: percent maximum fold activation of SIRT1; TAMRA peptide substrate; read-out: TAMRA % Fold Act
METRIC: Emax

Past entries and their recorded results:
1. O=C(Nc1cnc2ccc(-c3ccccc3C(F)(F)F)nn12)c1cccnc1 [Compound 86] :: < 350%
2. O=C(Nc1nc(CN2CCOCC2)cs1)c1cnc2ccc(-c3cc(F)cc(F)c3)nn12 [Compound 46] :: < 350%

Lookup: State its Emax: Cc1cc(-c2ccccc2C(F)(F)F)nn2c(C(=O)Nc3cccc(CN4CCOCC4)n3)cnc12 [Compound 195]
Found: ≥ 350%

Lookup: Note Emax for the molecule shown: O=C(Nc1cccc(CN2CCOCC2)n1)c1cnc2ccc(-c3ccc(F)c(F)c3)nn12 [Compound 43]
Found: < 350%

Lookup: Dear colleague, please send me the reported Emax for Cn1nccc1NC(=O)c1cnc2ccc(-c3ccccc3C(F)(F)F)nn12 [Compound 115] when you can.
Found: < 350%

Lookup: Provide measured Emax value, entry: CN(C)CCn1cc(NC(=O)c2cnc3ccc(-c4ccccc4C(F)(F)F)nn23)cn1 [Compound 155]
Found: < 350%

Lookup: Name the recorded Emax of the item O=C(Nc1cccc(N2CCOCC2)n1)c1cnc2ccc(-c3c(F)cccc3Cl)nn12 [Compound 164] in your answer.
Found: ≥ 350%

###

Catalogue of Emax readings, one per entry.
TARGET ENTITY: SIRT1 (Homo sapiens, UniProt Q96EB6)
Sequence (Q96EB6 1-747): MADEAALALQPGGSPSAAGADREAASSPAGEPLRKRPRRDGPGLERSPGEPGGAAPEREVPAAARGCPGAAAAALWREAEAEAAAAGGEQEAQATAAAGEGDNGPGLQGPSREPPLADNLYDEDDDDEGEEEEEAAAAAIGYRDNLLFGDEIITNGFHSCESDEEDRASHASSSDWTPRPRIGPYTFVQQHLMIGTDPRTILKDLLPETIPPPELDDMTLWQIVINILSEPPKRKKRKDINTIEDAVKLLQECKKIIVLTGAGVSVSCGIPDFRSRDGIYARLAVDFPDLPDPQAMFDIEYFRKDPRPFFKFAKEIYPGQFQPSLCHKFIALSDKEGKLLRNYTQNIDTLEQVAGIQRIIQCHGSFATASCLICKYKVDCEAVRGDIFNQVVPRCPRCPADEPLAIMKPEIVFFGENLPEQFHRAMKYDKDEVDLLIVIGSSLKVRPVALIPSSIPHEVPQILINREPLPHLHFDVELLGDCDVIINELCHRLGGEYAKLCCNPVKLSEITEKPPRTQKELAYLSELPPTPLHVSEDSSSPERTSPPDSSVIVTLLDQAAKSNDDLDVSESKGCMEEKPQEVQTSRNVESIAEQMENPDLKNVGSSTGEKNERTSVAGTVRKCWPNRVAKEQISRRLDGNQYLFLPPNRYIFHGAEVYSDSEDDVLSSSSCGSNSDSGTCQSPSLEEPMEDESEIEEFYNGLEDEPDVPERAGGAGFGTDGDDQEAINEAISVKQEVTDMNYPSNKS
PROCEDURE DETAILS: TAMRA based mass spectrometry assay of SIRT1 activity
Type: biochemical
CONDITION PARAMETERS: TAMRA assay; percent maximum fold activation; read-out: TAMRA % Fold Act

1) Cc1nc2ccc(-c3ccccc3C(F)(F)F)nn2c1NC(=O)c1nccs1 :: ≥ 350%
2) Cc1nc(C(=O)Nc2cnc3ccc(-c4ccccc4C#N)nn23)c(C)s1 :: ≥ 350%
3) Cc1cc(C)nc(NC(=O)c2cnc3ccc(-c4ccccc4F)nn23)c1 :: ≥ 350%
4) O=C(Nc1cnn2ccc(-c3ccccc3C(F)(F)F)nc12)c1ccncn1 :: ≥ 350%
5) Cc1nc2ccc(-c3ccccc3Cl)nn2c1NC(=O)c1nccs1 :: < 350%
6) COc1ccc(NC(=O)c2c(C)nc3ccc(-c4ccccc4Br)nn23)nn1 :: ≥ 350%

Lookup: Lab note: SIRT1 (Homo sapiens, UniProt Q96EB6) assay, enter Emax for `O=C(Nc1cnn2ccc(-c3ccccc3C(F)(F)F)nc12)c1ncc(F)cc1F` here
Found: ≥ 350%

Lookup: Give the observed Emax of `CCOc1cc(NC(=O)c2cnn3ccc(-c4ccccc4OC(F)(F)F)nc23)ccn1` for SIRT1 (Homo sapiens, UniProt Q96EB6).
Found: ≥ 350%

Lookup: Check SIRT1 (Homo sapiens, UniProt Q96EB6) data and give Emax for `Cc1cc(-c2ccccc2C(F)(F)F)nn2c(C(=O)Nc3cccnc3)cnc12` .
Found: ≥ 350%

Lookup: Give Emax only, for `Cc1cc(NC(=O)c2cnn3ccc(-c4ccccc4OC(F)(F)F)nc23)cc(C)n1` , using SIRT1 (Homo sapiens, UniProt Q96EB6) data.
Found: ≥ 350%

Lookup: Answer briefly: Emax recorded on SIRT1 (Homo sapiens, UniProt Q96EB6) for `Cc1cc(NC(=O)c2cnc3ccc(-c4ccccc4F)nn23)ccn1`
Found: < 350%

Lookup: Enter Emax (test system SIRT1 (Homo sapiens, UniProt Q96EB6)) for `O=C(Nc1cnc2ccc(-c3ccccc3C(F)(F)F)nn12)c1cnc(O)cn1`
Found: ≥ 350%
